Cited source for all entries: paper PMC6273621

{"columns": ["compound", "melting point"],
 "data": [
  ["CCOP(=O)(OCC)C(O)Cn1cc(CN2C(=O)c3cccc4cc(N)cc(c34)C2=O)nn1 (centres unmarked) [Compound 17e]", "170 to 172 °C"],
  ["CCOP(=O)(CC(O)Cn1cc(CN2C(=O)c3cccc4cc(N)cc(c34)C2=O)nn1)OCC (centres unmarked) [Compound 17f]", "222 to 224 °C"],
  ["CCOP(=O)(CNC(=O)Cn1cc(CN2C(=O)c3cccc4cc(N)cc(c34)C2=O)nn1)OCC [Compound 17i]", "222 to 224 °C"],
  ["C#CCN1C(=O)c2cccc3cc([N+](=O)[O-])cc(c23)C1=O [Compound 11]", "213 to 214 °C"],
  ["CCOP(=O)(CCOCCn1cc(CN2C(=O)c3cccc4cccc(c34)C2=O)nn1)OCC [Compound 14h]", "156 to 158 °C"],
  ["CCOP(=O)(CCn1cc(CN2C(=O)c3cccc4c(Br)ccc(c34)C2=O)nn1)OCC [Compound 15b]", "132 to 134 °C"],
  ["CCOP(=O)(CCCn1cc(CN2C(=O)c3cccc4c(Br)ccc(c34)C2=O)nn1)OCC [Compound 15c]", "118 to 120 °C"],
  ["CCOP(=O)(Cn1cc(CN2C(=O)c3cccc4c(Br)ccc(c34)C2=O)nn1)OCC [Compound 15a]", "158 to 159 °C"]
]}

* * *

{"columns": ["compound", "melting point"],
 "data": [
  ["CCOP(=O)(COCCn1cc(CN2C(=O)c3cccc4cc([N+](=O)[O-])cc(c34)C2=O)nn1)OCC [Compound 16g]", "89 to 90 °C"],
  ["CCOP(=O)(CCOCCn1cc(CN2C(=O)c3cccc4c(Br)ccc(c34)C2=O)nn1)OCC [Compound 15h]", "92 to 93 °C"],
  ["CCOP(=O)(OCC)C(O)Cn1cc(CN2C(=O)c3cccc4cccc(c34)C2=O)nn1 (stereo not shown) [Compound 14e]", "186 to 188 °C"],
  ["CCOP(=O)(CCCCn1cc(CN2C(=O)c3cccc4cc(N)cc(c34)C2=O)nn1)OCC [Compound 17d]", "218 to 220 °C"],
  ["CCOP(=O)(CCCCn1cc(CN2C(=O)c3cccc4cc([N+](=O)[O-])cc(c34)C2=O)nn1)OCC [Compound 16d]", "150 to 151 °C"],
  ["CCOP(=O)(COCCn1cc(CN2C(=O)c3cccc4cc(N)cc(c34)C2=O)nn1)OCC [Compound 17g]", "221 to 223 °C"],
  ["CCOP(=O)(CCCn1cc(CN2C(=O)c3cccc4cc(N)cc(c34)C2=O)nn1)OCC [Compound 17c]", "180 to 182 °C"]
]}

* * *

Tested on: TK− VZV strain
test_summary: microbe, parasite or virus in culture
Format: cell-based, varicella-zoster virus (VZV) strain 07−1
condition_info: read-out: Antiviral Activity EC50, TK− VZV Strain; HEL cell cultures; concentration reducing virus plaque formation by 50%

{"columns": ["compound", "assayed_system", "EC50"],
 "data": [
  ["O=c1[nH]c(=O)n([C@H]2C[C@H](O)[C@@H](CO)O2)cc1/C=C/Br [Brivudin, reference compound]", "TK− VZV strain", "13.7 µM"]
]}

* * *

Tested on: HEL cells
test_summary: Cytotoxicity, cell morphology (MCC) in HEL cells
Format: cell-based, human
condition_info: minimum cytotoxic concentration causing microscopically detectable alteration of cell morphology
value_kind: Cytotoxicity, Cell Morphology (MCC)

{"columns": ["compound", "reported_value"],
 "data": [
  ["CCOP(=O)(CCn1cc(CN2C(=O)c3cccc4c(Br)ccc(c34)C2=O)nn1)OCC [Compound 15b]", ">100 μM"],
  ["CCOP(=O)(CC(O)Cn1cc(CN2C(=O)c3cccc4c(Br)ccc(c34)C2=O)nn1)OCC (stereo not drawn) [Compound 15f]", ">100 μM"],
  ["CCOP(=O)(Cn1cc(CN2C(=O)c3cccc4cc([N+](=O)[O-])cc(c34)C2=O)nn1)OCC [Compound 16a]", ">100 μM"],
  ["CCOP(=O)(CC(O)Cn1cc(CN2C(=O)c3cccc4cc([N+](=O)[O-])cc(c34)C2=O)nn1)OCC (stereo not drawn) [Compound 16f]", ">100 μM"],
  ["CCOP(=O)(CCCn1cc(CN2C(=O)c3cccc4cc([N+](=O)[O-])cc(c34)C2=O)nn1)OCC [Compound 16c]", ">100 μM"],
  ["CCOP(=O)(CCOCCn1cc(CN2C(=O)c3cccc4cc([N+](=O)[O-])cc(c34)C2=O)nn1)OCC [Compound 16h]", ">100 μM"],
  ["CCOP(=O)(CCCCn1cc(CN2C(=O)c3cccc4c(Br)ccc(c34)C2=O)nn1)OCC [Compound 15d]", "100 μM"],
  ["CCOP(=O)(COCCn1cc(CN2C(=O)c3cccc4cc([N+](=O)[O-])cc(c34)C2=O)nn1)OCC [Compound 16g]", ">100 μM"],
  ["O=c1[nH]c(=O)n([C@H]2C[C@H](O)[C@@H](CO)O2)cc1/C=C/Br [Brivudin, reference compound]", ">300 μM"],
  ["CCOP(=O)(CCCCn1cc(CN2C(=O)c3cccc4cc([N+](=O)[O-])cc(c34)C2=O)nn1)OCC [Compound 16d]", ">100 μM"],
  ["CCOP(=O)(CCCn1cc(CN2C(=O)c3cccc4cccc(c34)C2=O)nn1)OCC [Compound 14c]", ">100 μM"],
  ["CN(C)CCN1C(=O)c2cccc3cc(N)cc(c23)C1=O [Amonafide, reference compound]", "20 μM"],
  ["CCOP(=O)(OCC)C(O)Cn1cc(CN2C(=O)c3cccc4cccc(c34)C2=O)nn1 (stereo not drawn) [Compound 14e]", ">100 μM"],
  ["CCOP(=O)(OCC)C(O)Cn1cc(CN2C(=O)c3cccc4cc([N+](=O)[O-])cc(c34)C2=O)nn1 (stereo not drawn) [Compound 16e]", ">100 μM"],
  ["C#CCN1C(=O)c2cccc3cc([N+](=O)[O-])cc(c23)C1=O [Compound 11]", "100 μM"]
]}

* * *

Test system: human T-lymphocyte (CEM) cells
test_summary: Cytostatic activity, CEM cell proliferation
Format: cell-based
condition_info: CCRF-CEM, cell proliferation, 72 h, read-out: IC50 CEM
# key: entry, value: IC50

{"columns": ["compound", "bound_operator", "IC50, µM"],
 "data": [
  ["CN(C)CCN1C(=O)c2cccc3cc(N)cc(c23)C1=O [Amonafide, reference compound]", "=", 0.54],
  ["C#CCN1C(=O)c2cccc3cc([N+](=O)[O-])cc(c23)C1=O", "=", 229],
  ["C#CCN1C(=O)c2cccc3cccc(c23)C1=O", "=", 206],
  ["C#CCN1C(=O)c2cccc3c(Br)ccc(c23)C1=O", "≥", 250]
]}

* * *

Test system: human cervix carcinoma cells (HeLa)
test_summary: Cytostatic activity, HeLa cell proliferation
Type: cell-based
condition_info: 72 h, read-out: IC50 HeLa
pIC50: −log10 of the molar value.

{"columns": ["compound", "bound_operator", "pIC50"],
 "data": [
  ["CCOP(=O)(CCOCCn1cc(CN2C(=O)c3cccc4c(Br)ccc(c34)C2=O)nn1)OCC [Compound 15h]", "=", 4.21],
  ["CCOP(=O)(COCCn1cc(CN2C(=O)c3cccc4cc(N)cc(c34)C2=O)nn1)OCC [Compound 17g]", "=", 4.01],
  ["CCOP(=O)(Cn1cc(CN2C(=O)c3cccc4cc([N+](=O)[O-])cc(c34)C2=O)nn1)OCC [Compound 16a]", "=", 4.36],
  ["CCOP(=O)(CCCn1cc(CN2C(=O)c3cccc4cc(N)cc(c34)C2=O)nn1)OCC [Compound 17c]", "≤", 3.60],
  ["CCOP(=O)(CCCCn1cc(CN2C(=O)c3cccc4cccc(c34)C2=O)nn1)OCC [Compound 14d]", "=", 3.82],
  ["CCOP(=O)(CCn1cc(CN2C(=O)c3cccc4cccc(c34)C2=O)nn1)OCC [Compound 14b]", "=", 3.69],
  ["CCOP(=O)(OCC)C(O)Cn1cc(CN2C(=O)c3cccc4c(Br)ccc(c34)C2=O)nn1 (stereo not shown) [Compound 15e]", "<", 3.60],
  ["CCOP(=O)(OCC)C(O)Cn1cc(CN2C(=O)c3cccc4cc([N+](=O)[O-])cc(c34)C2=O)nn1 (stereo not shown) [Compound 16e]", "=", 3.88],
  ["CCOP(=O)(CCCn1cc(CN2C(=O)c3cccc4cc([N+](=O)[O-])cc(c34)C2=O)nn1)OCC [Compound 16c]", "=", 4.54],
  ["CCOP(=O)(CCn1cc(CN2C(=O)c3cccc4cc(N)cc(c34)C2=O)nn1)OCC [Compound 17b]", "=", 4.16],
  ["CCOP(=O)(CCCn1cc(CN2C(=O)c3cccc4c(Br)ccc(c34)C2=O)nn1)OCC [Compound 15c]", "=", 4.21],
  ["CCOP(=O)(CCn1cc(CN2C(=O)c3cccc4c(Br)ccc(c34)C2=O)nn1)OCC [Compound 15b]", "=", 4.21],
  ["CCOP(=O)(CNC(=O)Cn1cc(CN2C(=O)c3cccc4cc([N+](=O)[O-])cc(c34)C2=O)nn1)OCC [Compound 16i]", "=", 4.07],
  ["CCOP(=O)(Cn1cc(CN2C(=O)c3cccc4c(Br)ccc(c34)C2=O)nn1)OCC [Compound 15a]", "=", 4.06],
  ["CCOP(=O)(CCCn1cc(CN2C(=O)c3cccc4cccc(c34)C2=O)nn1)OCC [Compound 14c]", "=", 3.76],
  ["CCOP(=O)(OCC)C(O)Cn1cc(CN2C(=O)c3cccc4cccc(c34)C2=O)nn1 (stereo not shown) [Compound 14e]", "≤", 3.60],
  ["CCOP(=O)(Cn1cc(CN2C(=O)c3cccc4cccc(c34)C2=O)nn1)OCC [Compound 14a]", "<", 3.60],
  ["CCOP(=O)(COCCn1cc(CN2C(=O)c3cccc4cc([N+](=O)[O-])cc(c34)C2=O)nn1)OCC [Compound 16g]", "=", 4.12],
  ["CCOP(=O)(COCCn1cc(CN2C(=O)c3cccc4c(Br)ccc(c34)C2=O)nn1)OCC [Compound 15g]", "=", 4.08],
  ["CCOP(=O)(OCC)C(O)Cn1cc(CN2C(=O)c3cccc4cc(N)cc(c34)C2=O)nn1 (stereo not shown) [Compound 17e]", "=", 4.14],
  ["CCOP(=O)(CCCCn1cc(CN2C(=O)c3cccc4c(Br)ccc(c34)C2=O)nn1)OCC [Compound 15d]", "=", 4.26],
  ["CCOP(=O)(CCOCCn1cc(CN2C(=O)c3cccc4cc([N+](=O)[O-])cc(c34)C2=O)nn1)OCC [Compound 16h]", "=", 4.25],
  ["CCOP(=O)(CNC(=O)Cn1cc(CN2C(=O)c3cccc4cc(N)cc(c34)C2=O)nn1)OCC [Compound 17i]", "=", 3.95],
  ["CCOP(=O)(CNC(=O)Cn1cc(CN2C(=O)c3cccc4cccc(c34)C2=O)nn1)OCC [Compound 14i]", "<", 3.60],
  ["CCOP(=O)(CCOCCn1cc(CN2C(=O)c3cccc4cc(N)cc(c34)C2=O)nn1)OCC [Compound 17h]", "=", 4.18],
  ["CCOP(=O)(CNC(=O)Cn1cc(CN2C(=O)c3cccc4c(Br)ccc(c34)C2=O)nn1)OCC [Compound 15i]", "<", 3.60],
  ["CCOP(=O)(CC(O)Cn1cc(CN2C(=O)c3cccc4cc(N)cc(c34)C2=O)nn1)OCC (stereo not shown) [Compound 17f]", "=", 3.89],
  ["CCOP(=O)(CCOCCn1cc(CN2C(=O)c3cccc4cccc(c34)C2=O)nn1)OCC [Compound 14h]", "=", 3.81],
  ["CCOP(=O)(CC(O)Cn1cc(CN2C(=O)c3cccc4cccc(c34)C2=O)nn1)OCC (stereo not shown) [Compound 14f]", "=", 3.77],
  ["CCOP(=O)(Cn1cc(CN2C(=O)c3cccc4cc(N)cc(c34)C2=O)nn1)OCC [Compound 17a]", "=", 4.00],
  ["CCOP(=O)(CCCCn1cc(CN2C(=O)c3cccc4cc([N+](=O)[O-])cc(c34)C2=O)nn1)OCC [Compound 16d]", "=", 4.09]
]}
